Every entry's value here was drawn from patent US8450313B2.

TESTED SYSTEM: full length human recombinant glucocorticoid receptor (Homo sapiens)
Construct: It contains some partially purified full length human recombinant glucocorticoid receptor
Sequence (P04150 1-777): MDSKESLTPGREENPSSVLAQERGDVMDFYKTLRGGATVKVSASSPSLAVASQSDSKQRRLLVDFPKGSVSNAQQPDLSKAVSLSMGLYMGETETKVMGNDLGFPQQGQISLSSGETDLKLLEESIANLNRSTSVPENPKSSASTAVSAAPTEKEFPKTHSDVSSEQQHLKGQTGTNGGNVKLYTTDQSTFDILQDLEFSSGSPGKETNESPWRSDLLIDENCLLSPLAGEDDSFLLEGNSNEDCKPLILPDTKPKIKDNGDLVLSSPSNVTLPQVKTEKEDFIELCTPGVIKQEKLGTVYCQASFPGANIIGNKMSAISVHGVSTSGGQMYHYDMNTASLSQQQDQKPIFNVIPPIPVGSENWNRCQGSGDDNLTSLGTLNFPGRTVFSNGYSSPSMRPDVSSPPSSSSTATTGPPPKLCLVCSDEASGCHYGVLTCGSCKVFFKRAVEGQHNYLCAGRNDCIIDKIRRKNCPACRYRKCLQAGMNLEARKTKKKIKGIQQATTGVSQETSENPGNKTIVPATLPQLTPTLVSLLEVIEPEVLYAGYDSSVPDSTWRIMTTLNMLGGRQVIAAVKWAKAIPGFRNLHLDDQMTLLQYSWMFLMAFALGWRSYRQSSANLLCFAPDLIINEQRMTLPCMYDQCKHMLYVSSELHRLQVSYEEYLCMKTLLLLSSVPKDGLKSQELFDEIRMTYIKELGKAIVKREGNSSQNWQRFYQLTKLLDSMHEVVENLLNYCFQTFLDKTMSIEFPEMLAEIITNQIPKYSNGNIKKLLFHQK
PROTOCOL NOTES: Glucocorticoid Receptor Binding Assay (Glucocorticoid Receptor Competitor Assay far red kit, fluorescence polarization)
EXPERIMENTAL CONDITIONS: competition with fluorescent GR ligand Fluormone GS Far Red, 3 hours at 22° C., pH 7.4; Ki calculated from IC50 by Cheng-Prusoff
READOUT LABEL: pKi
A value of pKi is the negative decimal logarithm of a concentration given in moles per litre.

* C[C@H](c1ccc(-c2ccc(C(=O)O)c(F)c2)cc1Cl)[C@@](O)(c1ccc2oc(=O)n(C)c2c1)C(F)(F)F [Example 120] | 7.34
* C[C@H](c1ccc(Oc2ccc(C(=O)O)nc2)cc1Cl)[C@@](O)(c1ccc2c(c1)n(C)c(=O)n2C)C(F)(F)F (stereo in doubt) | 8.28
* C[C@@H](c1ccc(-c2ccc(C(=O)O)c(F)c2)cc1Cl)[C@](O)(c1cc(F)c2c(c1)N(C)C(=O)CO2)C(F)(F)F (relative stereo) | 7.96

Next item in the queue.
In: Look up and state reported pKi for Cc1cc([C@@](O)([C@@H](C)c2ccc(Oc3ncc(C(=O)O)cc3Cl)cc2Cl)C(F)(F)F)cc(C)c1C#N (stereo in doubt)
Out: 8.89
